# Test system: Cotton
# test_details: Post-emergent herbicidal test, cotton
# Format: in vivo
# Parameters: key: 1: no perceptible injury; 2: intermediate degrees of injury based upon the number and extent to which leaves were injured; 3: intermediate degrees of injury based upon the number and extent to which leaves were injured; 4: intermediate degrees of injury based upon the number and extent to which leaves were injured; 5: the plant was dead
# test_context: Table I; 2500 parts per million; after ten days
measurement_kind: Post-Emergent Herbicidal, Cotton (injury rating)

compound | tested_system | recorded_measurement
Cc1ccccc1C1C(=O)CCC1=O | Cotton | 3
Cc1ccc(C2C(=O)C3CCCCC3C2=O)c(C)c1 (stereo not drawn) | Cotton | 2
O=C1CCC(=O)C1c1ccccc1Cl | Cotton | 2
Cc1ccc(C)c(C2C(=O)CC(C)C2=O)c1 (stereo not drawn) | Cotton | 2
Cc1ccc(C2C(=O)CCC2=O)c(C)c1 | Cotton | 1
Cc1ccc(C)c(C2C(=O)CCC2=O)c1 | Cotton | 2
Cc1ccccc1C1C(=O)C2CCCCC2C1=O (stereo not drawn) | Cotton | 3
Cc1ccc(C)c(C2C(=O)C3CCCCC3C2=O)c1 (stereo not drawn) | Cotton | 1
O=C1CCC(=O)C1c1ccc(Cl)cc1Cl | Cotton | 2

This collection of values is drawn from patent US4338122A.
